// provenance: the supplement of paper PMC8728848

Target: Fuc(a1-2)Gal(b1-3)[Fuc(a1-4)]GlcNAc(b1-3)[Gal(b1-4)GlcNAc(b1-6)]Gal(b1-4)Glc
Assay: glycan array binding signal (z-score within array); higher = stronger binding
Settings: glycan notation: IUPAC condensed, linker removed
This is one part of a sample in which the strongest signals are shown more often than they occur.
As shown below, each of these binders has a reported glycan array binding signal (z-score) value.
PROPERTY NAME: glycan array binding signal (z-score)

| BINDER | PROPERTY NAME | EXPERIMENTAL VALUE |
| --- | --- | --- |
| PfulAvr4 (Pseudocercospora fuligena) (protein) HHHHHHDYKDDDDKTYVQDKTPAFVCPAADIKTTKCLGPKDCLYPSPKTCNGYIQCSPADDSYLTGIIHEMPCPSGLLWNDNKKWCDWPENTTCGLVKSAGATEVDATKQGPTPGKYHG | glycan array binding signal (z-score) | -0.112 |
| GH98CBM51-1 (Streptococcus pneumoniae) (protein) MTYLSDMDWSSATHGDIDKTKTVQKDAPFTTGNKGEHTKISLLTSDDKVKYFDKGIGTVADSPSVISYDISGQGFEKFETYIGIDQSANSSRSDHAVVDRIEIEIDGKVVYSSSVTNPEGFRYNTQAQFISVTIPQNAKKISLKSFAGEHTWGDEVVFADAKLIKTVST | glycan array binding signal (z-score) | -0.19 |
| SefD (Salmonella enterica), Q9L6K6 (protein) GAYIIRGQNNSAHKLRIRIGGEDWQPDNSGIGMVSHSDFTNEFNIYYFGNGDIPVDTYLISIYATEIEL | glycan array binding signal (z-score) | 5.83 |
| AcfC (Vibrio cholerae), Q57410 (protein) MKSKNRFLLISLLSFSTSVFADVNLYGPGGPHVPLIKVAESFEKSQSKRVNITFGPQATWNDKAKKNADILFGASEHSALAIAEGHSERFSKFNIHPVFMREAIILVKKGNPKNIKGMADLLKPGIGIVVNDGAGVSNTSGTAVWEDSVGRMKNVEKLQAFRSNIHVFAPNSGSARKAFVDGEDIDAWITWVDWAIANPTIGDMVRMEDEYRIYRDFNVVLAKNPSSEAIDFFDYLTKSKDAEAIFQHYGWFK | glycan array binding signal (z-score) | 1.12 |
| SJCP1531 (Schistosoma japonicum) (protein) MFKVRIINLVNISTVLLLINLLQTKSQVNVEQLVTVLEVNIKAQLKNKTTEVLVEWNPLYQDNSMPEYRKLLDETCKLFLPFVNEKVPPSTYGGECTNANFSEAPQDGSYSRVNAELRLIYKYSDNPQIQTDRLQDDLNDREEFITSESSFVAYNPKFTVKIEKLFIPISESQTTPPPTTAKNDASKKDDDDNGGEDSKAPIDTFAMTASGNKGKKDDDDNGGEDSKAPIDTFAMTASGSKDERSTWTIIGIITLVVLIFVVIGGGITVFVKRC | glycan array binding signal (z-score) | 0.498 |
